B1: Protein PTHB1 (Homo sapiens), Q3SYG4 (parent)
chain: MSLFKARDWWSTILGDKEEFDQGCLCLANVDNSGNGQDKIIVGSFMGYLRIFSPHPAKTGDGAQAEDLLLEVDLRDPVLQVEVGKFVSGTEMLHLAVLHSRKLCVYSVSGTLGNVEHGNQCQMKLMYEHNLQRTACNMTYGSFGGVKGRDLICIQSMDGMLMVFEQESYAFGRFLPGFLLPGPLAYSSRTDSFLTVSSCQQVESYKYQVLAFATDADKRQETEQQKLGSGKRLVVDWTLNIGEQALDICIVSFNQSASSVFVLGERNFFCLKDNGQIRFMKKLDWSPSCFLPYCSVSEGTINTLIGNHNNMLHIYQDVTLKWATQLPHIPVAVRVGCLHDLKGVIVTLSDDGHLQCSYLGTDPSLFQAPNVQSRELNYDELDVEMKELQKIIKDVNKSQGVWPMTEREDDLNVSVVVSPNFDSVSQATDVEVGTDLVPSVTVKVTLQNRVILQKAKLSVYVQPPLELTCDQFTFEFMTPDLTRTVSFSVYLKRSYTPSELEGNAVVSYSRPTDRNPDGIPRVIQCKFRLPLKLICLPGQPSKTASHKITIDTNKSPVSLLSLFPGFASQSDDDQVNVMGFHFLGGARITVLASKTSQRYRIQSEQFEDLWLITNELILRLQEYFEKQGVKDFACSFSGSIPLQEYFELIDHHFELRINGEKLEELLSERAVQFRAIQRRLLARFKDKTPAPLQHLDTLLDGTYKQVIALADAVEENQGNLFQSFTRLKSATHLVILLIALWQKLSADQVAILEAAFLPLQEDTQELGWEETVDAAISHLLKTCLSKSSKEQALNLNSQLNIPKDTSQLKKHITLLCDRLSKGGRLCLSTDAAAPQTMVMPGGCTTIPESDLEERSVEQDSTELFTNHRHLTAETPRPEVSPLQGVSE
partner: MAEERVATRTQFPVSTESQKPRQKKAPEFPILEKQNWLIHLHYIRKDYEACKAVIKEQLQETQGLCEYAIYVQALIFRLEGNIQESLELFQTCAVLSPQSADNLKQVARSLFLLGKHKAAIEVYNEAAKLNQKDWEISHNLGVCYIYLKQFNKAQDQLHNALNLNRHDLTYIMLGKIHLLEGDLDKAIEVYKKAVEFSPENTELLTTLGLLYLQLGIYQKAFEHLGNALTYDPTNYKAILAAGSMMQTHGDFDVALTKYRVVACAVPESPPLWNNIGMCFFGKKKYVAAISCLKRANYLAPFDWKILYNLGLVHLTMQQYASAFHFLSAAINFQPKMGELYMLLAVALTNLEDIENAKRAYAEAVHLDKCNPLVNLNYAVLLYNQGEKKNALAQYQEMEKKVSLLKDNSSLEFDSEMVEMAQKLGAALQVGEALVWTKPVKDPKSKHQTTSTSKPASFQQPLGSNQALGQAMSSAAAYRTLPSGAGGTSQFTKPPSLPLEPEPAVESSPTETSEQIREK

# Variants of: B1
# Test Context: with bbs4_human BBS4, Q96RK4
Parameter: effect of a mutation on the interaction

Mutation: R726A
Measured: with no effect

Mutation: E848K
Measured: with no effect

Mutation: P463E
Measured: with no effect
